Biological target: Plasminogen activator inhibitor 1 (Homo sapiens, UniProt P05121)
Sequence (P05121 whole entry): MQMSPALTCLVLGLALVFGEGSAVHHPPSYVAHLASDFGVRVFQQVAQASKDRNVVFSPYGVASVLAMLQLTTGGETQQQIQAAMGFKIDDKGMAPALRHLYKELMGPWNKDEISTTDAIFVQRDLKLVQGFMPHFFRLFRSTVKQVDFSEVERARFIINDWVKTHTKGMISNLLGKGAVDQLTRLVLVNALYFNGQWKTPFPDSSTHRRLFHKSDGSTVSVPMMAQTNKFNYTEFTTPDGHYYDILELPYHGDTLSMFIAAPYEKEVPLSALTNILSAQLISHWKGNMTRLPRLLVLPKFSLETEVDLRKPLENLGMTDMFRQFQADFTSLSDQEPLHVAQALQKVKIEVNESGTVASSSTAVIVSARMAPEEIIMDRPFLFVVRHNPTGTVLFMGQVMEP
Assay: Percentage inhibitory activity against Plasminogen activator inhibitor-1 at 100 uM
Please provide measured Inhibition for the entries that follow.
Give bare numbers, in %.

# batch: return Inhibition for each of the 6 compounds below
1. O=C(O)c1cc2cc(NS(=O)(=O)c3ccc(Cl)c(Cl)c3)ccc2n1Cc1ccccc1
2. O=C(Nc1ccc(Cl)c(Cl)c1)c1ccc(CNc2cc([N+](=O)[O-])ccc2C(=O)O)cc1
3. O=C(O)c1cc2cc(NS(=O)(=O)c3ccc(-c4ccccc4)cc3)ccc2n1Cc1ccccc1
4. CCCCS(=O)(=O)Nc1ccc2c(c1)cc(C(=O)O)n2Cc1ccccc1
5. O=C(O)C(=O)c1cn(Cc2ccccc2)c2ccc(-c3ccc(OC(F)(F)F)cc3)cc12
6. O=C(O)c1cc2cc(NS(=O)(=O)c3ccccc3)ccc2n1Cc1ccccc1

1. 62
2. 74
3. 64
4. 14
5. 83
6. 32
